Provide the reported IC50 (cAMP by HTRF, antagonist dose-response) of each item.
target: human melanocortin 4 receptor (MC4R) (human, UniProt P32245 1-332); assay: cell-based or functional assay
Sequence (P32245 whole entry): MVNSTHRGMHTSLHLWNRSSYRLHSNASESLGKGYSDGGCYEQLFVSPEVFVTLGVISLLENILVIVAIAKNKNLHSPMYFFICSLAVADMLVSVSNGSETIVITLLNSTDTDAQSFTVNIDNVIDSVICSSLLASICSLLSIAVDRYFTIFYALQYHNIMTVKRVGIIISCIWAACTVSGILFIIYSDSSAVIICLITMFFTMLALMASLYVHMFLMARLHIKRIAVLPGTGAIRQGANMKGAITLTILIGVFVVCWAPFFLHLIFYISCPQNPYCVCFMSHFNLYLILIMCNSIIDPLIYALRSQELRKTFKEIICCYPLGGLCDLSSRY
Positions of bridges follow the written chain, without caps; N, C: chain ends. Non-standard residues stand in square brackets, D forms with d. d2Nal = N[C@H](Cc1ccc2ccccc2c1)C(=O)O; Hyp = O=C(O)[C@@H]1C[C@@H](O)CN1; Nle = CCCC[C@H](N)C(=O)O
Report only the number, with the unit nM understood.

Exam item: For the binder Ac-[Nle]DP[d2Nal]RWK[dP][dV]-NH2 (lactam 2-7; SMILES CCCC[C@H](NC(C)=O)C(=O)N[C@H]1CC(=O)NCCCC[C@@H](C(=O)N2CCC[C@@H]2C(=O)N[C@@H](C(N)=O)C(C)C)NC(=O)[C@H](Cc2c[nH]c3ccccc23)NC(=O)[C@H](CCCNC(=N)N)NC(=O)[C@@H](Cc2ccc3ccccc3c2)NC(=O)[C@@H]2CCCN2C1=O) [TCMCB02] , report IC50 (cAMP by HTRF, antagonist dose-response).
Marked response: 57.1

Exam item: State, in one line, measured IC50 (cAMP by HTRF, antagonist dose-response) of Ac-[Nle]D[Hyp][d2Nal]RWK[dV][dP]-NH2 (lactam 2-7; SMILES CCCC[C@H](NC(C)=O)C(=O)N[C@H]1CC(=O)NCCCC[C@@H](C(=O)N[C@@H](C(=O)N2CCC[C@@H]2C(N)=O)C(C)C)NC(=O)[C@H](Cc2c[nH]c3ccccc23)NC(=O)[C@H](CCCNC(=N)N)NC(=O)[C@@H](Cc2ccc3ccccc3c2)NC(=O)[C@@H]2C[C@@H](O)CN2C1=O) [D3]
Marked response: 40.6

Exam item: Please report IC50 (cAMP by HTRF, antagonist dose-response) for the following binder: Ac-[Nle]DP[d2Nal]RWK[dV][dP]-NH2 (lactam 2-7) [TCMCB07]
Marked response: 26.9

Exam item: In one line, give reported IC50 (cAMP by HTRF, antagonist dose-response) of the entry Ac-[Nle]DP[d2Nal]RWK[dV][dP]-NH2 (SMILES CCCC[C@H](NC(C)=O)C(=O)N[C@@H](CC(=O)O)C(=O)N1CCC[C@H]1C(=O)N[C@H](Cc1ccc2ccccc2c1)C(=O)N[C@@H](CCCNC(=N)N)C(=O)N[C@@H](Cc1c[nH]c2ccccc12)C(=O)N[C@@H](CCCCN)C(=O)N[C@@H](C(=O)N1CCC[C@@H]1C(N)=O)C(C)C) [A1] .
Marked response: 3610
